STUDY_TARGET: mushroom tyrosinase (mTYR) (Agaricus bisporus, UniProt C7FF04)
Construct: purchased Sigma-Aldrich (Milan, Italy)
Sequence (C7FF04 1-392): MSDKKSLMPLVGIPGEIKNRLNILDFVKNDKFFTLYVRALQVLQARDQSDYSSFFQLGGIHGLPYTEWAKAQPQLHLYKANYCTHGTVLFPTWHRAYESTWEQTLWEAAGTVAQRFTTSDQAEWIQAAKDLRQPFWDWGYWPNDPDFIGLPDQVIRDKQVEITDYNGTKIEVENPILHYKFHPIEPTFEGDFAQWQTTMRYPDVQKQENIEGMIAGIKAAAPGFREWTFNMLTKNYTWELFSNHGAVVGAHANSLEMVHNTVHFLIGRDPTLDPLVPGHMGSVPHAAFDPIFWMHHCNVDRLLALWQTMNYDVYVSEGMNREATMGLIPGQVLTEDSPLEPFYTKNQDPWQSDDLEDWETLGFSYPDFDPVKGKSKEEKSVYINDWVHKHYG
ASSAY_OVERVIEW: Inhibition of mushroom tyrosinase diphenolase reaction (substrate L-dopa, dopachrome at 475 nm)
Type: biochemical
MEASUREMENT_CONTEXT: IC50 Diphenolase, 30 °C, pH 6.8, L-dopa 0.25 mM
Measured IC50, listed per entry.
Write it as a number; the unit µM goes unstated.

O=C(/C=C/c1ccc(O)c(O)c1)c1ccc(O)cc1O ... 5.38

For the next question, use this compound.
Q: Quick check: IC50 of COc1cc(/C=C/C(=O)c2ccc(O)cc2O)ccc1O ?
A: 5.6

====

STUDY_TARGET: mushroom tyrosinase (mTYR) (Agaricus bisporus, UniProt C7FF04)
Construct: purchased Sigma-Aldrich (Milan, Italy)
ASSAY_OVERVIEW: Inhibition of mushroom tyrosinase monophenolase reaction (substrate L-tyrosine, dopachrome at 475 nm)
Type: biochemical
MEASUREMENT_CONTEXT: IC50 Monophenolase, 30 °C, pH 6.8, L-tyrosine 0.05 mM
Listing of recorded IC50 by entry.
Answer format: numeric, µM implied, no suffix.

COc1cc(/C=C/C(=O)c2ccc(O)cc2O)ccc1O [Homobutein] ... 4.01

// next item, IC50 requested
Q: Return reported IC50; argument: O=C(/C=C/c1ccc(O)c(O)c1)c1ccc(O)cc1O [Butein]
A: 45.1

====

STUDY_TARGET: mushroom tyrosinase (mTYR) (Agaricus bisporus, UniProt C7FF04)
Construct: purchased Sigma-Aldrich (Milan, Italy)
ASSAY_OVERVIEW: Inhibition of mushroom tyrosinase diphenolase reaction (substrate L-dopa, dopachrome at 475 nm)
Assay type: biochemical
MEASUREMENT_CONTEXT: KI Competitive, diphenolase, inhibitor 0.175 µM
EXPERIMENTAL_ENDPOINT: Ki (nM)
Just the number in nM, nothing appended.

Q: Could you share which Ki value was measured for COc1cc(/C=C/C(=O)c2ccc(O)cc2O)ccc1O [Homobutein] ?
A: 1280

====

STUDY_TARGET: mushroom tyrosinase (mTYR) (Agaricus bisporus)
Construct: purchased Sigma-Aldrich (Milan, Italy)
ASSAY_OVERVIEW: Inhibition of mushroom tyrosinase diphenolase reaction (substrate L-dopa, dopachrome at 475 nm)
Assay type: biochemical
MEASUREMENT_CONTEXT: KI Competitive, diphenolase, inhibitor 2.8 µM
EXPERIMENTAL_ENDPOINT: Ki
Answer with the value and then the unit.

Q: Recorded Ki of O=C(/C=C/c1ccc(O)c(O)c1)c1ccc(O)cc1O [Butein] , please.
A: 2590 nM

====

STUDY_TARGET: mushroom tyrosinase (mTYR) (Agaricus bisporus, UniProt C7FF04)
Construct: purchased Sigma-Aldrich (Milan, Italy)
ASSAY_OVERVIEW: Inhibition of mushroom tyrosinase monophenolase reaction (substrate L-tyrosine, dopachrome at 475 nm)
Format: biochemical
MEASUREMENT_CONTEXT: IC50 Monophenolase, 30 °C, pH 6.8, L-tyrosine 0.25 mM
Measured IC50 of individual entries
Answer by giving the amount and then stating its unit.

O=C(/C=C/c1ccc(O)c(O)c1)c1ccc(O)cc1O ... 12.9 µM

Q: Can you look up the measured IC50 of COc1cc(/C=C/C(=O)c2ccc(O)cc2O)ccc1O for me?
A: 6.06 µM

====

STUDY_TARGET: mushroom tyrosinase (mTYR) (Agaricus bisporus, UniProt C7FF04)
Construct: purchased Sigma-Aldrich (Milan, Italy)
ASSAY_OVERVIEW: Inhibition of mushroom tyrosinase monophenolase reaction (substrate L-tyrosine, dopachrome at 475 nm)
Assay type: biochemical
MEASUREMENT_CONTEXT: IC50 Monophenolase, 30 °C, pH 6.8, L-tyrosine 1.00 mM
EXPERIMENTAL_ENDPOINT: pIC50
The quantity pIC50 is defined as the negative base-10 logarithm of the molar concentration.

O=C(/C=C/c1ccc(O)c(O)c1)c1ccc(O)cc1O [Butein] ... 4.96

Q: Can you look up the measured pIC50 of COc1cc(/C=C/C(=O)c2ccc(O)cc2O)ccc1O [Homobutein] for me?
A: 4.83
